Source listed as patent US20250340591A1.

Target: GPR39 (Homo sapiens)
Sequence (O43194 whole entry): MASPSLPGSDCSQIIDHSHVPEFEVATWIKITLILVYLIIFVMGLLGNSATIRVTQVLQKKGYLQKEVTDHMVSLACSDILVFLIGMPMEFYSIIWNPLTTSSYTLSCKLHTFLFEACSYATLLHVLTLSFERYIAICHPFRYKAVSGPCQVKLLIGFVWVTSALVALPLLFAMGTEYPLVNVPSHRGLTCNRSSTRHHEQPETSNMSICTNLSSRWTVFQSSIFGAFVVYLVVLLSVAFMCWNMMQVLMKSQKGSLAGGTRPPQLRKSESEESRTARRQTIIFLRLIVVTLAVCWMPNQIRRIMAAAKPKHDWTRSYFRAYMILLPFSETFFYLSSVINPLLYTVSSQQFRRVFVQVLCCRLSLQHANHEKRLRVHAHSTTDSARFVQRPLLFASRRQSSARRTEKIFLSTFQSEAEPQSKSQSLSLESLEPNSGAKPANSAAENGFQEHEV
Assay: luciferase assay system (SRE luciferase reporter gene, CV-1 cells expressing GPR39)
Format: cell-based
Set-up: expressed in transfected cells; host or cells: CV-1 fibroblast cell line (Korea Cell Line Bank), adenoviral transduction at 50 MOI
Square brackets hold non-standard residues; d marks the D form. Peptide text beside a SMILES is read from it. * marks the point of attachment. dHis(Trt) = N[C@H](Cc1cn(C(c2ccccc2)(c2ccccc2)c2ccccc2)cn1)C(=O)O; dPhe(4-Cl) = N[C@H](Cc1ccc(Cl)cc1)C(=O)O; Octanoyl = CCCCCCCC(=O)*
readout: ECmax (−fold induction over basal)
Give bare numbers, in fold induction over basal.

Examples with their reported ECmax (−fold induction over basal) follow.
CCCCCCCC(=O)NCCCC[C@H](NC(=O)[C@H](N)Cc1cn(C(c2ccccc2)(c2ccccc2)c2ccccc2)cn1)C(=O)N[C@H](Cc1ccc(Cl)cc1)C(=O)N[C@H](Cc1ccc(O)cc1)C(=O)O [HKFY-14] (H-[dHis(Trt)]K(Octanoyl)[dPhe(4-Cl)][dY]-OH) | 20.9
CCCCCCCC(=O)NCCCC[C@H](NC(=O)[C@@H](N)Cc1c[nH]c(-c2ccccc2)n1)C(=O)N[C@H](Cc1ccc(C)cc1)C(=O)N[C@@H](Cc1ccc(O)cc1)C(=O)O | 8.5

Looking for the measured ECmax (−fold induction over basal) of CCCCCCCC(=O)NCCCC[C@H](NC(=O)[C@@H](N)Cc1cn(C(c2ccccc2)c2ccccc2)cn1)C(=O)O , can you help?
11.2
